Origin of the recorded values: patent US9513294B2

Assay: Absorbance and fluorescence emission spectra (SpectraMax M2)
Type: physicochemical
Conditions: BDC library, Table 2
REPORTED_METRIC: λmax Emission (nm)

Input: Form field: reported λmax Emission of CN(Cc1ccccc1)Cc1cn(-c2ccc3n2[B-](F)(F)[N+]2=C(N4CCCCC4)C=CC2=C3c2ccc(N)cc2)nn1 [BDC-18]
Output: 580

Input: Form field: reported λmax Emission of Nc1ccc(C2=C3C=CC(N4CCCCC4)=[N+]3[B-](F)(F)n3c2ccc3-n2cc(-c3cc(C(F)(F)F)cc(C(F)(F)F)c3)nn2)cc1 [BDC-30]
Output: 547

Input: Form field: reported λmax Emission of CCCCCCc1cn(-c2ccc3n2[B-](F)(F)[N+]2=C(N4CCCCC4)C=CC2=C3c2ccc(N)cc2)nn1 [BDC-47]
Output: 574

Input: Form field: reported λmax Emission of Nc1ccc(C2=C3C=CC(N4CCCCC4)=[N+]3[B-](F)(F)n3c2ccc3-n2cc(CC3CCCCC3)nn2)cc1 [BDC-8]
Output: 585

Input: Form field: reported λmax Emission of Nc1ccc(C2=C3C=CC(N4CCCCC4)=[N+]3[B-](F)(F)n3c2ccc3-n2cc(CCc3ccccc3)nn2)cc1 [BDC-19]
Output: 594

Input: Form field: reported λmax Emission of Cc1ccc(-c2cn(-c3ccc4n3[B-](F)(F)[N+]3=C(N5CCCCC5)C=CC3=C4c3ccc(N)cc3)nn2)cc1 [BDC-10]
Output: 564

Input: Form field: reported λmax Emission of Nc1ccc(C2=C3C=CC(N4CCCCC4)=[N+]3[B-](F)(F)n3c2ccc3-n2cc(COc3ccccc3)nn2)cc1 [BDC-17]
Output: 591

Input: Form field: reported λmax Emission of Nc1ccc(C2=C3C=CC(N4CCCCC4)=[N+]3[B-](F)(F)n3c2ccc3-n2cc(CC3CCCC3)nn2)cc1 [BDC-7]
Output: 573

Input: Form field: reported λmax Emission of CCCCc1cn(-c2ccc3n2[B-](F)(F)[N+]2=C(N4CCCCC4)C=CC2=C3c2ccc(N)cc2)nn1 [BDC-42]
Output: 584

Input: Form field: reported λmax Emission of COc1cccc(-c2cn(-c3ccc4n3[B-](F)(F)[N+]3=C(N5CCCCC5)C=CC3=C4c3ccc(N)cc3)nn2)c1 [BDC-27]
Output: 565

Input: Form field: reported λmax Emission of Nc1ccc(C2=C3C=CC(N4CCCCC4)=[N+]3[B-](F)(F)n3c2ccc3-n2cc(C3CCCCC3)nn2)cc1 [BDC-6]
Output: 582

Input: Form field: reported λmax Emission of CCCCCC(O)c1cn(-c2ccc3n2[B-](F)(F)[N+]2=C(N4CCCCC4)C=CC2=C3c2ccc(N)cc2)nn1 (centres unmarked) [BDC-69]
Output: 586

Input: Form field: reported λmax Emission of Nc1ccc(C2=C3C=CC(N4CCCCC4)=[N+]3[B-](F)(F)n3c2ccc3-n2cc(C3CC3)nn2)cc1 [BDC-4]
Output: 590

Input: Form field: reported λmax Emission of CCCCCc1ccc(-c2cn(-c3ccc4n3[B-](F)(F)[N+]3=C(N5CCCCC5)C=CC3=C4c3ccc(N)cc3)nn2)cc1 [BDC-29]
Output: 586

Input: Form field: reported λmax Emission of Nc1ccc(C2=C3C=CC(N4CCCCC4)=[N+]3[B-](F)(F)n3c2ccc3-n2cc(-c3ccc(OC(F)(F)F)cc3)nn2)cc1 [BDC-15]
Output: 549

Input: Form field: reported λmax Emission of COc1ccc2cc(-c3cn(-c4ccc5n4[B-](F)(F)[N+]4=C(N6CCCCC6)C=CC4=C5c4ccc(N)cc4)nn3)ccc2c1 [BDC-22]
Output: 579

Input: Form field: reported λmax Emission of Nc1ccc(C2=C3C=CC(N4CCCCC4)=[N+]3[B-](F)(F)n3c2ccc3-n2cc(-c3cccc(F)c3)nn2)cc1 [BDC-31]
Output: 582

Input: Form field: reported λmax Emission of CC(C)CCc1cn(-c2ccc3n2[B-](F)(F)[N+]2=C(N4CCCCC4)C=CC2=C3c2ccc(N)cc2)nn1 [BDC-36]
Output: 590

Input: Form field: reported λmax Emission of CN(C)c1ccc(-c2cn(-c3ccc4n3[B-](F)(F)[N+]3=C(N5CCCCC5)C=CC3=C4c3ccc(N)cc3)nn2)cc1 [BDC-13]
Output: 616

Input: Form field: reported λmax Emission of Nc1ccc(C2=C3C=CC(N4CCCCC4)=[N+]3[B-](F)(F)n3c2ccc3-n2cc(C3(O)CCCC3)nn2)cc1 [BDC-67]
Output: 595

Input: Form field: reported λmax Emission of CCCc1cn(-c2ccc3n2[B-](F)(F)[N+]2=C(N4CCCCC4)C=CC2=C3c2ccc(N)cc2)nn1 [BDC-48]
Output: 582

Input: Form field: reported λmax Emission of CCCCCCCCCCc1cn(-c2ccc3n2[B-](F)(F)[N+]2=C(N4CCCCC4)C=CC2=C3c2ccc(N)cc2)nn1 [BDC-49]
Output: 589

Input: Form field: reported λmax Emission of CCCC(C)c1cn(-c2ccc3n2[B-](F)(F)[N+]2=C(N4CCCCC4)C=CC2=C3c2ccc(N)cc2)nn1 (centres unmarked) [BDC-3]
Output: 567

Input: Form field: reported λmax Emission of Cc1cccc(-c2cn(-c3ccc4n3[B-](F)(F)[N+]3=C(N5CCCCC5)C=CC3=C4c3ccc(N)cc3)nn2)c1 [BDC-45]
Output: 556

Input: Form field: reported λmax Emission of CCCCc1ccc(-c2cn(-c3ccc4n3[B-](F)(F)[N+]3=C(N5CCCCC5)C=CC3=C4c3ccc(N)cc3)nn2)cc1 [BDC-12]
Output: 594

Input: Form field: reported λmax Emission of Nc1ccc(C2=C3C=CC(N4CCCCC4)=[N+]3[B-](F)(F)n3c2ccc3-n2cc(C3=CCCCC3)nn2)cc1 [BDC-37]
Output: 579

Input: Form field: reported λmax Emission of CC(C)Cc1cn(-c2ccc3n2[B-](F)(F)[N+]2=C(N4CCCCC4)C=CC2=C3c2ccc(N)cc2)nn1 [BDC-43]
Output: 589

Input: Form field: reported λmax Emission of Nc1ccc(C2=C3C=CC(N4CCCCC4)=[N+]3[B-](F)(F)n3c2ccc3-n2cc(CO)nn2)cc1 [BDC-70]
Output: 586

Input: Form field: reported λmax Emission of Nc1ccc(C2=C3C=CC(N4CCCCC4)=[N+]3[B-](F)(F)n3c2ccc3-n2cc(-c3ccc(F)c(F)c3)nn2)cc1 [BDC-16]
Output: 585
